target: GlcNAc(b1-3)Gal(b1-4)GlcNAc(b1-3)Gal(b1-4)GlcNAc(b1-3)Gal(b1-4)GlcNAc(b1-3)Gal(b1-4)GlcNAc(b1-2)Man(a1-3)[GlcNAc(b1-3)Gal(b1-4)GlcNAc(b1-3)Gal(b1-4)GlcNAc(b1-3)Gal(b1-4)GlcNAc(b1-3)Gal(b1-4)GlcNAc(b1-2)Man(a1-6)]Man(b1-4)GlcNAc(b1-4)[Fuc(a1-6)]GlcNAc; experiment: glycan array binding signal (z-score within array); higher = stronger binding; settings: glycan notation: IUPAC condensed, linker removed
Many of the other results were omitted from the sample, so the strongest signals are more common in it than they were.
The reader will find reported glycan array binding signal (z-score) values listed item by item below.
# output: bare number, no unit

binder	glycan array binding signal (z-score)
DC-ASGPR L+GEE (Homo sapiens) (protein) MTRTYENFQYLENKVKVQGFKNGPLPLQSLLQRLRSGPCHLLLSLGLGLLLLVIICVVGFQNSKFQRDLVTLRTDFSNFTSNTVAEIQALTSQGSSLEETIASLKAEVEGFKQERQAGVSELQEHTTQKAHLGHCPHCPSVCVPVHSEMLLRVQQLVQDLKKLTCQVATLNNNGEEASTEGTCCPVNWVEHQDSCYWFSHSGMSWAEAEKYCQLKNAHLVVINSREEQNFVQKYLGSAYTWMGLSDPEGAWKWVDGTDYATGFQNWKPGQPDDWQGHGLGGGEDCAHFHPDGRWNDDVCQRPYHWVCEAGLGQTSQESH	0.512

Now take the following binder into account.
INPUT: I have this binder here, EUL D1A (Oryza sativa) (protein) MFGFGHHHNQAPAAPSDPNQIFKIFCRANENYCLTVRDSAVVLAPVNPKDEHQHWFKDMRFSTKVKDGEGMPAFALVNKATGLAVKHSLGQSHPVKLVPFNPEYEDASVLWTESKDVGKGFRCIRMVNNTRLNLDAFHGDKDHGGVRDGTTVVLWEWCKGDNQSWKILPWGPEAHSSSPGAATACTIGGVPVHTVRVFSAAGEDYCLTVRNGTACLAPKNPRDDYQHWIKDMRHSNKIRDEEGYPAFALVNKVTGEAIKHSTGQGHPVKLVPYNPEYQDESVLWTESKDVGKGFRCIRMVNNIYLNFDAFHGDKDHGGIHDGTEIVLWKWCEGDNQRWKILPWILEQKLISEEDLNSAVDHHHHHH , and I need its recorded glycan array binding signal (z-score).
OUTPUT: 1.58
